- Tested on: P. falciparum late stage (stages IV-V) gametocytes
- PROTOCOL DETAILS: P. falciparum late stage gametocyte ATP depletion assay (Pf GC-ATP)
- CONDITION SET: 1: YES; 0: NO; >10-fold selectivity over cytotoxicity
# reported Is compound selective in assay? Pf GC-ATP active?; entries follow

Some compounds with known Is compound selective in assay? Pf GC-ATP active? results, for comparison:
{"COMPOUND": "CCn1c(-c2nonc2N)nc2c(-c3cccc(NC(=O)Nc4cccc(C#N)c4)c3)ncc(OCCCN)c21.O=C(O)C(F)(F)F", "ASSAY RESULT": "0 (0: NO)"}
{"COMPOUND": "Nc1cc(C=Cc2ccc([N+](=O)[O-])o2)nc2ccccc12", "ASSAY RESULT": "1 (1: YES)"}
{"COMPOUND": "CN(CCCNCc1cccc2ccccc12)CCCNCc1cccc2ccccc12.Cl", "ASSAY RESULT": "1 (1: YES)"}
{"COMPOUND": "COc1ccc(-c2cnn3ccc(Nc4cc(OC)c(OC)c(OC)c4)nc23)cc1OC", "ASSAY RESULT": "0 (0: NO)"}
{"COMPOUND": "CC(C)CNCc1cccc(-c2cccc(CNCCCN3CCN(C)CC3)c2)c1.O=C(O)C(F)(F)F", "ASSAY RESULT": "1 (1: YES)"}
{"COMPOUND": "CN(C)Cc1ccc(-c2cccc(Nc3nccc(NCC(O)c4ccccc4)n3)c2)cc1 (stereo not drawn)", "ASSAY RESULT": "0 (0: NO)"}

Q. Request the reported Is compound selective in assay? Pf GC-ATP active? associated with CC(C)CCNC(=N)Nc1ccc(OCCCOc2ccc(NC(=N)NCCC(C)C)cc2)cc1
A. 1 (1: YES)

Q. Also need CN1CCN(CCCN(Cc2ccc(-c3cccc(CNC4CCCC4)c3)cc2)C(=O)Nc2ccccc2)CC1.O=C(O)C(F)(F)F , thanks.
A. 1 (1: YES)

Q. Also need CC(=NNC(=S)NCCc1ccccn1)c1ccccn1 , thanks.
A. 1 (1: YES)

----------
# reported pIC50; entries follow
- System: P. berghei ookinete development
- CONDITION SET: read-out: Pb ODA IC50; this manuscript
Scale note: pIC50 = -log10(concentration in M).

{"COMPOUND": "C=CCn1ccc2c3c(N)nc(N)nc3ccc21 [TCMDC-137995]", "PARAMETER MEASURED": "pIC50", "ASSAY RESULT": 5.61}
{"COMPOUND": "Cc1[nH]c(C)c(-c2ccc(-c3cc(C(F)(F)F)cc(C(F)(F)F)c3)nc2)c(=O)c1Br [TCMDC-136015]", "PARAMETER MEASURED": "pIC50", "ASSAY RESULT": 6.96}
{"COMPOUND": "CC(C)N1CCN(CCCNc2c3ccccc3nc3ccccc23)CC1.Cl [TCMDC-137547]", "PARAMETER MEASURED": "pIC50", "ASSAY RESULT": 5.43}
{"COMPOUND": "Cc1[nH]c(C)c(-c2ccc(-c3ccc(C(F)F)cc3)nc2)c(=O)c1Cl [TCMDC-132329]", "PARAMETER MEASURED": "pIC50", "ASSAY RESULT": 5.11}
{"COMPOUND": "COc1cc(OC)c(NC(=O)C2c3ccccc3C(=O)N(CC(C)C)C2c2cccs2)cc1Cl (stereo not drawn) [TCMDC-124760]", "PARAMETER MEASURED": "pIC50", "ASSAY RESULT": 5.06}

Field: next compound
Q. Request the reported pIC50 associated with Clc1ccc(Nc2nc(-c3ccccn3)cs2)nc1 [TCMDC-123885]
A. 5.43

Values from paper PMC6753678
